- Species: Rattus norvegicus
- ASSAY_NOTES: Open TG-GATES - Regimen: Daily Repeat
- Format: toxicity, organism-based, Sprague-Dawley
- Parameters: regimen Daily Repeat, gender Male, age 6 weeks
- CONDITION_PARAMETERS: in vivo, po, 1000 mg/kg, […], tissue Plasma, route gavage, dose level High, time 14 day
The reader will find reported Ca values listed item by item below.
PROPERTY_NAME: Ca (mg/dL)

molecule=COC1=CC(=O)C[C@@H](C)[C@]12Oc1c(Cl)c(OC)cc(OC)c1C2=O property_name=Ca measured_value=10.8
molecule=NC(N)=Nc1nc(CSCCC(N)=NS(N)(=O)=O)cs1 property_name=Ca measured_value=10.8
molecule="CCOC(=O)CCC(=O)O[C@H]1[C@H](O[C@@H]2[C@@H](C)[C@H](O[C@H]3C[C@@](C)(OC)[C@@H](O)[C@H](C)O3)[C@@H](C)C(=O)O[C@H](CC)[C@@](C)(O)[C@H](O)[C@@H](C)C(=O)[C@H](C)C[C@@]2(C)O)O[C@H](C)C[C@@H]1N(C)C [ERYTHROMYCIN ETHYLSUCCINATE]" property_name=Ca measured_value=10.7
molecule="COc1ccc2[nH]c([S+]([O-])Cc3ncc(C)c(OC)c3C)nc2c1 (stereo not given)" property_name=Ca measured_value=10.8
molecule="CCOc1ccc(NC(=O)CC(C)O)cc1 (stereo not given)" property_name=Ca measured_value=10.8

====

- Species: Rattus norvegicus
- ASSAY_NOTES: Open TG-GATES - Regimen: Single
- Type: toxicity, organism-based, Sprague-Dawley
- Set-up: regimen Single, gender Male, age 6 weeks
- CONDITION_PARAMETERS: in vivo, po, 300 mg/kg, 24 h, tissue Blood, route gavage, dose level Middle
The reader will find reported Ht values listed item by item below.
PROPERTY_NAME: Ht (%)

compound="COc1ccc2[nH]c([S+]([O-])Cc3ncc(C)c(OC)c3C)nc2c1 (centres undefined)" property_name=Ht result_unit=% measured_value=39.6
compound=COC1=CC(=O)C[C@@H](C)[C@]12Oc1c(Cl)c(OC)cc(OC)c1C2=O property_name=Ht result_unit=% measured_value=40
compound="CCOC(=O)CCC(=O)O[C@H]1[C@H](O[C@@H]2[C@@H](C)[C@H](O[C@H]3C[C@@](C)(OC)[C@@H](O)[C@H](C)O3)[C@@H](C)C(=O)O[C@H](CC)[C@@](C)(O)[C@H](O)[C@@H](C)C(=O)[C@H](C)C[C@@]2(C)O)O[C@H](C)C[C@@H]1N(C)C [ERYTHROMYCIN ETHYLSUCCINATE]" property_name=Ht result_unit=% measured_value=41.1
compound=NC(N)=Nc1nc(CSCCC(N)=NS(N)(=O)=O)cs1 property_name=Ht result_unit=% measured_value=37.6

====

The reader will find reported GLC values listed item by item below.
- Species on record: Rattus norvegicus
- ASSAY_NOTES: Open TG-GATES - Regimen: Daily Repeat
- Assay type: toxicity, organism-based, Sprague-Dawley
- Design: regimen Daily Repeat, gender Male, age 6 weeks
- CONDITION_PARAMETERS: in vivo, po, 0 mg/kg, […], tissue Plasma, route gavage, dose level Control, time 14 day
PROPERTY_NAME: GLC (mg/dL)

compound=COC1=CC(=O)C[C@@H](C)[C@]12Oc1c(Cl)c(OC)cc(OC)c1C2=O property_name=GLC measured_value=236
compound=NC(N)=Nc1nc(CSCCC(N)=NS(N)(=O)=O)cs1 property_name=GLC measured_value=208
compound="COc1ccc2[nH]c([S+]([O-])Cc3ncc(C)c(OC)c3C)nc2c1 (stereo not drawn)" property_name=GLC measured_value=222.6
compound=O=C(CCCN1CCC(O)(c2ccc(Cl)cc2)CC1)c1ccc(F)cc1 property_name=GLC measured_value=195.4
compound=CC1=C(/C=C/C(C)=C/C=C/C(C)=C/CO)C(C)(C)CCC1 property_name=GLC measured_value=201.8
compound="CCOc1ccc(NC(=O)CC(C)O)cc1 (stereo not drawn)" property_name=GLC measured_value=188.8
compound=NNC(=O)c1ccncc1 property_name=GLC measured_value=213.2
compound=CN(C)CCCN1c2ccccc2CCc2ccccc21 property_name=GLC measured_value=183.8
compound="CCOC(=O)CCC(=O)O[C@H]1[C@H](O[C@@H]2[C@@H](C)[C@H](O[C@H]3C[C@@](C)(OC)[C@@H](O)[C@H](C)O3)[C@@H](C)C(=O)O[C@H](CC)[C@@](C)(O)[C@H](O)[C@@H](C)C(=O)[C@H](C)C[C@@]2(C)O)O[C@H](C)C[C@@H]1N(C)C [ERYTHROMYCIN ETHYLSUCCINATE]" property_name=GLC measured_value=207.2
compound=CN(C)CCN(Cc1cccs1)c1ccccn1 property_name=GLC measured_value=194.8
compound="CCCNC(=O)NS(=O)(=O)c1ccc(Cl)cc1 [CHLORPROPAMIDE]" property_name=GLC measured_value=194.6
compound=CN1C(=O)CN=C(c2ccccc2)c2cc(Cl)ccc21 property_name=GLC measured_value=183.2
compound="CC(C)OC(=O)C(C)(C)Oc1ccc(C(=O)c2ccc(Cl)cc2)cc1 [FENOFIBRATE]" property_name=GLC measured_value=188.2

====

The reader will find reported Cl values listed item by item below.
- Species: Rattus norvegicus
- ASSAY_NOTES: Open TG-GATES - Regimen: Daily Repeat
- Assay type: toxicity, organism-based, Sprague-Dawley
- Parameters: regimen Daily Repeat, gender Male, age 6 weeks
- CONDITION_PARAMETERS: in vivo, po, 1000 mg/kg, 72 h, tissue Plasma, route gavage, dose level High, time 3 day
PROPERTY_NAME: Cl (meq/L)

molecule="CCOC(=O)CCC(=O)O[C@H]1[C@H](O[C@@H]2[C@@H](C)[C@H](O[C@H]3C[C@@](C)(OC)[C@@H](O)[C@H](C)O3)[C@@H](C)C(=O)O[C@H](CC)[C@@](C)(O)[C@H](O)[C@@H](C)C(=O)[C@H](C)C[C@@]2(C)O)O[C@H](C)C[C@@H]1N(C)C [ERYTHROMYCIN ETHYLSUCCINATE]" measured_value=108.4
molecule="COc1ccc2[nH]c([S+]([O-])Cc3ncc(C)c(OC)c3C)nc2c1 (stereo not given)" measured_value=101.8
molecule=COC1=CC(=O)C[C@@H](C)[C@]12Oc1c(Cl)c(OC)cc(OC)c1C2=O measured_value=103.6
molecule="CCOc1ccc(NC(=O)CC(C)O)cc1 (stereo not given)" measured_value=106.8
molecule=NC(N)=Nc1nc(CSCCC(N)=NS(N)(=O)=O)cs1 measured_value=104.2

====

- Organism: Rattus norvegicus
- ASSAY_NOTES: Open TG-GATES - Regimen: Single
- Format: toxicity, organism-based, Sprague-Dawley
- Parameters: regimen Single, gender Male, age 6 weeks
- CONDITION_PARAMETERS: in vivo, po, 10 mg/kg, 9 h, tissue Blood, route gavage, dose level Low
PROPERTY_NAME: Ret (%)

molecule=CC1=C(/C=C/C(C)=C/C=C/C(C)=C/CO)C(C)(C)CCC1 result_unit=% measured_value=7.6
molecule="CC(C)OC(=O)C(C)(C)Oc1ccc(C(=O)c2ccc(Cl)cc2)cc1 [FENOFIBRATE]" result_unit=% measured_value=9.5
molecule=CN(C)CCCN1c2ccccc2CCc2ccccc21 result_unit=% measured_value=7.7
molecule=CN(C)CCCN1c2ccccc2CCc2ccc(Cl)cc21 result_unit=% measured_value=8.4
molecule=CN(C)CCN(Cc1cccs1)c1ccccn1 result_unit=% measured_value=7.4

====

- Species: Rattus norvegicus
- ASSAY_NOTES: Open TG-GATES - Regimen: Daily Repeat
- Format: toxicity, organism-based, Sprague-Dawley
- Parameters: regimen Daily Repeat, gender Male, age 6 weeks
- CONDITION_PARAMETERS: in vivo, po, 0 mg/kg, […], tissue Blood, route gavage, dose level Control, time 28 day
The reader will find reported Eos values listed item by item below.
PROPERTY_NAME: Eos (%)

compound="CCOc1ccc(NC(=O)CC(C)O)cc1 (stereo not drawn)" measured_value=1.2
compound="CCCNC(=O)NS(=O)(=O)c1ccc(Cl)cc1 [CHLORPROPAMIDE]" measured_value=1.2
compound="CCOC(=O)CCC(=O)O[C@H]1[C@H](O[C@@H]2[C@@H](C)[C@H](O[C@H]3C[C@@](C)(OC)[C@@H](O)[C@H](C)O3)[C@@H](C)C(=O)O[C@H](CC)[C@@](C)(O)[C@H](O)[C@@H](C)C(=O)[C@H](C)C[C@@]2(C)O)O[C@H](C)C[C@@H]1N(C)C [ERYTHROMYCIN ETHYLSUCCINATE]" measured_value=1

====

The reader will find reported Eos values listed item by item below.
- Organism: Rattus norvegicus
- ASSAY_NOTES: Open TG-GATES - Regimen: Single
- Assay type: toxicity, organism-based, Sprague-Dawley
- Set-up: regimen Single, gender Male, age 6 weeks
- CONDITION_PARAMETERS: in vivo, po, 100 mg/kg, 9 h, tissue Blood, route gavage, dose level Low
PROPERTY_NAME: Eos (%)

compound="CCOC(=O)CCC(=O)O[C@H]1[C@H](O[C@@H]2[C@@H](C)[C@H](O[C@H]3C[C@@](C)(OC)[C@@H](O)[C@H](C)O3)[C@@H](C)C(=O)O[C@H](CC)[C@@](C)(O)[C@H](O)[C@@H](C)C(=O)[C@H](C)C[C@@]2(C)O)O[C@H](C)C[C@@H]1N(C)C [ERYTHROMYCIN ETHYLSUCCINATE]" measured_value=1
compound="NC(N)=Nc1nc(CSCCC(N)=NS(N)(=O)=O)cs1 [FAMOTIDINE]" measured_value=0.8
compound="COC1=CC(=O)C[C@@H](C)[C@]12Oc1c(Cl)c(OC)cc(OC)c1C2=O [GRISEOFULVIN]" measured_value=1
compound="COc1ccc2[nH]c([S+]([O-])Cc3ncc(C)c(OC)c3C)nc2c1 (centres undefined) [OMEPRAZOLE]" measured_value=0.8
